We begin with a simple list: items and their reported Cellular binding assay [RFU].
tested.on: T1, CD27 expressed on the cell surface (HT1080_CD27 cells) (human, UniProt P26842 20-260)
T1 construct: whole, on cells; also called K562_CD27
T1 sequence (looked up): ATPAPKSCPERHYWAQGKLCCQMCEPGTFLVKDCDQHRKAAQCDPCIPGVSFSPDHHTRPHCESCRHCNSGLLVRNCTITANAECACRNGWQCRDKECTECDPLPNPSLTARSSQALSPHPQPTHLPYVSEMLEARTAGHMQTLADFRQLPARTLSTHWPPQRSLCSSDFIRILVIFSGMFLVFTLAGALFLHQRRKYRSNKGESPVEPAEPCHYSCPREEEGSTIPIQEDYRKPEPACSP
test.details: cellular binding assay, HT1080_CD27 cells; further: test concentration or dose not given here
Report as a plain number; the unit RFU is understood.

Worked set:
binder	Cellular binding assay [RFU], RFU
P018.S.03.A.G02 (antibody, V domains shown, V regions on human Ig constant parts; also called AB27_56) VH: QSLEESGGDLVKPGASLTLTCTASGFSFSSGYDMCWVRQAPGKGLEWIACIYAGSNNNTYYASWAKGRFTISKTSSTTVTLQVASLTAADTATYFCARAAGGYADYAYVMGDYFNFWGPGTLVTVSS VL: AYDMTQTPASVEVAVGGTVTIKCQASEDIYSILAWYQQKPGQRPKGLIYSASTLDSGVPLRFSGSGSGTEFTLTISGVQSDDAATYYCQQGYSSSNVDNVFGGGTEVVVK	275
P018.S.01.A.E05 (antibody, V domains shown, V regions on human Ig constant parts; also called AB27_17) VH: QEQLVESGGGLVQPEGSLTLTCTASGFSFSSRYYMCWVRQAPGKGLEWIACIAPDVSGSAYYATWAKGRITISETSSTTVTLRMTSLTAADTAIYFCARSVPGSLFYFQLWGPGTVVTVSS VL: AAVLTQTPPSVSAAVGGTVTIKCQSSQSVYNKNEFSWYQQKPGQPPKLLIYDASTLASGVPSRFKGSGSGTQFTLTISDLESDDAATYYCQGSYYSSGSYTAFGGGTEVVVK	420
P018.S.03.A.C05 (antibody, V domains shown, V regions on human Ig constant parts; also called AB27_46) VH: QSLEESGGGLVQPGGTLTLTCKASGIDFSSSFYMCWVRQAPGKGLERIACTYNRDGSTYYASWAKGRFTISKTSSTTVTLQMASLTVADTATYFCARDDGYPGSGYVFNLWGPGTLVTVSS VL: DVVMTQTPASVEAAVGGTVTIKCQASQSVSSYLSWYQQKPGQRPKLLIYGASNLESGVPSRFKGSGSGTEFTLTISGVQSDDAATYYCQGGYYSSGADNNSFGGGTELVVK	303
P018.S.05.A.H02 (antibody, V domains shown, V regions on human Ig constant parts; also called AB27_94) VH: QEQLEESGGRLVTPGGTLTLTCTASGFSLNSYDMSWVRQAPGKGLEWIGYIWSDGNTDYASWAAGRFTASRASTTVDLKMTSLTTEDTATYFCARGYTGFFLWGPGTLVTVSS VL: DVVMTQTPSSVSAAVGGTVTIKCQASQSIGSSYLSWYQQKPGQPPKLLIYEASTLASGVPSRFKGSGSGTEFTLTISDLESDDAATYYCQCTYYGGSWRVAFGGGTEVVVK	336

Next item in the queue.
For record P018.S.10.A.E04 (antibody, V domains shown, V regions on human Ig constant parts; also called AB27_177) VH: QSLEESGGDLVKPGASLTLTCTASGFSFSSSYWICWVRQAPGKGLEWVACISAPGSGSTFDASWAKGRFTISKTSSTTVTLQMTSLTAADTATYFCARFYAGGSGDYFDLWGPGTLVTVSS VL: QIVMTQTPSSTSEPVGGTVSIKCQASQNIGSYLAWYQQKPGQPPKVLIYTTSDLASGVPSRFKGSGSGTQFTLTISDLESDDAATYYCLGVYGYSSDDVAFGGGTEVVVK the listed Cellular binding assay [RFU] is 280
